Test system: NS5A chimeric genotype 1b Con1 replicon with genotype 3a S52 strain NS5A gene
Experiment: Replicon assay, genotype 3a NS5A chimera
Type: cell-based, HCV
Conditions: Hepatitis C virus, read-out: 3a (s) (nM), genotype 3a NS5A chimeric replicon, stable replicon cells (s)
Experimental Readout: EC50 (nM)
Response body: numeric value in nM, unit text excluded.

Worked examples follow.
structure=COC(=O)N[C@@H](C)C(=O)N1[C@@H](C)CC[C@H]1c1ncc(-c2ccc3c(c2)COc2cc4c(ccc5nc([C@@H]6CC[C@H](C)N6C(=O)[C@H](C)NC(=O)OC)[nH]c54)cc2-3)[nH]1 obs_value=0.556
structure=COC(=O)N[C@H](C(=O)N1[C@@H](C)CC[C@H]1c1ncc(-c2ccc3c(c2)COc2cc4c(ccc5nc([C@@H]6CC[C@H](C)N6C(=O)[C@@H](NC(=O)OC)[C@@H](C)OC(C)(C)C)[nH]c54)cc2-3)[nH]1)C(C)C obs_value=0.298
structure=COC(=O)N[C@H](C(=O)N1[C@@H](C)CC[C@H]1c1nc(Cl)c(-c2ccc3c(c2)COc2cc4c(ccc5nc([C@@H]6CC[C@H](C)N6C(=O)[C@@H](NC(=O)OC)[C@@H](C)OC)[nH]c54)cc2-3)[nH]1)[C@@H](C)OC obs_value=0.029

Okay, next one:
(Q) Report EC50 from NS5A chimeric genotype 1b Con1 replicon with genotype 3a S52 strain NS5A gene testing of `CC[C@H]1CC[C@@H](c2ncc(-c3ccc4c(c3)COc3cc5c(ccc6nc([C@@H]7CC[C@H](C)N7C(=O)[C@@H](NC(=O)OC)C(C)C)[nH]c65)cc3-4)[nH]2)N1C(=O)[C@@H](NC(=O)OC)C1CCOCC1`
(A) 0.076
